- particulars: human gut metagenome, 24 h, 2 µM; also: call rule not given here
assay-metric: Bacterial Biotransformation

Some molecules with known Bacterial Biotransformation results, for comparison:
[[record]]
molecule = "CN1[C@@H]2CC[C@H]1C[C@@H](OC(=O)c1c[nH]c3ccccc13)C2"
val = "Compound NOT metabolized"

[[record]]
molecule = "COC(=O)C(c1ccccc1)C1CCCCN1 (stereo unspecified) [METHYLPHENIDATE]"
val = "Compound NOT metabolized"

[[record]]
molecule = "Nc1nnc(-c2cccc(Cl)c2Cl)c(N)n1"
val = "Compound NOT metabolized"

[[record]]
molecule = "C[N+]12CCC(CC1)C(OC(=O)C(O)(c1ccccc1)c1ccccc1)C2.[Br-] (stereo unspecified) [CLIDINIUM BROMIDE]"
val = "Compound NOT metabolized"

[[record]]
molecule = "COc1ccc2cc([C@H](C)C(=O)O)ccc2c1"
val = "Compound NOT metabolized"


Batch of 2 molecules: report Bacterial Biotransformation for each.
1. CC(=O)O[C@]1(C(C)=O)CC[C@H]2[C@@H]3C=C(C)C4=CC(=O)CC[C@]4(C)[C@H]3CC[C@@]21C [MEGESTROL ACETATE]
2. C#C[C@]1(OC(C)=O)CC[C@H]2[C@@H]3CCC4=C/C(=N/O)CC[C@@H]4[C@H]3CC[C@@]21CC [NORGESTIMATE]

Compound metabolized
Compound metabolized
